assayedSystem: mTOR (Homo sapiens, UniProt P42345)
Construct: endogenous in cells; host or cells: Jurkat (ATCC TIB-152, clone E6-1) and Ramos (ATCC CRL-1596), 1:1 lysate mix
methodNotes: mTOR kinobeads assay (competition binding in cell lysate, dot blot detection)
measurementContext: 1:1 mix of Jurkat and Ramos cell lysates, read-out: Inhibition values (IC50 in μM) as determined in the kinobeads assay, mTor
Reported IC50 values follow for various compounds

Take a look at these entries with their results.
>  <compound>
C[C@H]1COCCN1c1nc2c(c(-c3ccc(NC(=O)NC4CC4)cc3)n1)CN(C(=O)C1CCOC1)C2 (some centres unmarked) [Example 40, 2,2,2-trifluoroacetate]

>  <IC50>
1 to 10 µM

$$$$
>  <compound>
C[C@H]1COCCN1c1nc2c(c(-c3ccc(NC(=O)NC4CC4)cc3)n1)CN(C(=O)CO)C2

>  <IC50>
0.1 to 1 µM

$$$$
>  <compound>
C[C@H]1COCCN1c1nc2c(c(-c3ccc(NC(=O)NC4CC4)cc3)n1)CNC2

>  <IC50>
0.1 to 1 µM

$$$$

Next item in the queue.
In: Provide measured IC50 value, entry: O=C(Nc1ccc(-c2nc(N3CC4CCC(C3)O4)nc3c2CNC3)cc1)NC1CC1
Out: 0.1 to 1 µM

* * *

assayedSystem: PI3Kδ (Homo sapiens, UniProt O00329)
Construct: endogenous in cells; host or cells: Jurkat (ATCC TIB-152, clone E6-1) and Ramos (ATCC CRL-1596), 1:1 lysate mix
Sequence (O00329 whole entry): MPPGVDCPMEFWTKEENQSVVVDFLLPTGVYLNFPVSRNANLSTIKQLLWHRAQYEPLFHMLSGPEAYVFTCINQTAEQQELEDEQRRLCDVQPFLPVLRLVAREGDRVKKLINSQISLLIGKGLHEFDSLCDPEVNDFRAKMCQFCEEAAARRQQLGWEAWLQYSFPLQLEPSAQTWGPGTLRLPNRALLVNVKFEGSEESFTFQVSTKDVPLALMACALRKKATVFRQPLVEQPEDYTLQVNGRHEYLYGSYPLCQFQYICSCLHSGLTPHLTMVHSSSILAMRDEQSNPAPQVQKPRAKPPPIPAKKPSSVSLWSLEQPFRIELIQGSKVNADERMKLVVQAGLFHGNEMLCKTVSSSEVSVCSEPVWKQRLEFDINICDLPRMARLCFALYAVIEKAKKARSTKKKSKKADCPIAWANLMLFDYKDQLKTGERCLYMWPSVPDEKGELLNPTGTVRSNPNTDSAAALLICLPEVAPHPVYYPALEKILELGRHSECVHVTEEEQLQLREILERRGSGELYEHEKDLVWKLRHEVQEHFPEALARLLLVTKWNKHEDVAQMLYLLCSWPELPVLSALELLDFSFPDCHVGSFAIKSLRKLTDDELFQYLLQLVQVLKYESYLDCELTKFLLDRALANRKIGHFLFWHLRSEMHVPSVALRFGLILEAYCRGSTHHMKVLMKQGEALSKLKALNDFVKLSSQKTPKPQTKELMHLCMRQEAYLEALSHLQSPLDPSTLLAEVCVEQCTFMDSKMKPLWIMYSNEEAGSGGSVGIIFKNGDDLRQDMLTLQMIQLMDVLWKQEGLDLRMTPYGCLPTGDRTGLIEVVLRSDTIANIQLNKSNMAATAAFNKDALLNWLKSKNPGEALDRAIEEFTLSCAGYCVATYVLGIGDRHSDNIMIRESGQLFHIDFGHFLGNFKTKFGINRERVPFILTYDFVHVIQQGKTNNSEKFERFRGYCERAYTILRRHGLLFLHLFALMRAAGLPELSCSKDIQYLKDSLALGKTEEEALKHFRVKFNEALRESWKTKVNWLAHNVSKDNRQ
Sequence (P27986 whole entry partner): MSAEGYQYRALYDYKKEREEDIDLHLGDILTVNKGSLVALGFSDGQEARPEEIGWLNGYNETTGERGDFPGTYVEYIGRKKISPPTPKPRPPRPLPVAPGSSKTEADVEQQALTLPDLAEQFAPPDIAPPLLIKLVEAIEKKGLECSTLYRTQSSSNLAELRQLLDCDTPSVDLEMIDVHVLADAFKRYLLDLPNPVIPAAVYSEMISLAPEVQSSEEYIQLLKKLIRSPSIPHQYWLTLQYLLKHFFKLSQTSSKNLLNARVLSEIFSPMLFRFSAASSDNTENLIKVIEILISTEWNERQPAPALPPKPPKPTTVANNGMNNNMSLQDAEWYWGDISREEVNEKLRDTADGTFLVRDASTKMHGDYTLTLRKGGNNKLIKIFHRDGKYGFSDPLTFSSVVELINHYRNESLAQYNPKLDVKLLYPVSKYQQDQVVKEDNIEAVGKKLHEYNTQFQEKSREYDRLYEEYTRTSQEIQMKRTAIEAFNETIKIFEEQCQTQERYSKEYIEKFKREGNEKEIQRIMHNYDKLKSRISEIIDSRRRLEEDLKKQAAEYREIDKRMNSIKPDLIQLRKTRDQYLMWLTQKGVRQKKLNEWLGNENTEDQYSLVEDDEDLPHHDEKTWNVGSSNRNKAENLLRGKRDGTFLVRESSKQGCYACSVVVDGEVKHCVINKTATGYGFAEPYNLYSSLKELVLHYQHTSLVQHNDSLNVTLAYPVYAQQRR
methodNotes: kinobeads assay, PI3Kδ
Format: binding
measurementContext: 1:1 mix of Jurkat and Ramos cell lysates, read-out: Inhibition values (IC50 in μM) as determined in the kinobeads assay, PI3Kδ
Reported IC50 values follow for various compounds

Take a look at these entries with their results.
>  <compound>
CCOC(=O)N1Cc2nc(N3CCOC[C@@H]3C)nc(-c3ccc(NC(=O)NC4CC4)cc3)c2C1

>  <IC50>
> 100 µM

$$$$
>  <compound>
CCNC(=O)Nc1ccc(-c2nc(N3CCOC[C@@H]3C)nc3c2CNC3)cc1

>  <IC50>
10 to 100 µM

$$$$
>  <compound>
CCNC(=O)Nc1ccc(-c2nc(N3CCOCC3)nc3c2CN(C(=O)OCC)C3)cc1

>  <IC50>
> 100 µM

$$$$

In: Provide measured IC50 value, entry: C[C@H]1COCCN1c1nc2c(c(-c3ccc(NC(=O)NC4CC4)cc3)n1)CN(C(=O)C1CCCO1)C2 (some centres unmarked)
Out: 10 to 100 µM

In: Provide measured IC50 value, entry: COCC(=O)N1Cc2nc(N3CCOC[C@@H]3C)nc(-c3ccc(NC(=O)NC4CC4)cc3)c2C1
Out: 10 to 100 µM

* * *

Reported IC50 values follow for various molecules
assayedSystem: PI3Kγ (Homo sapiens)
Construct: endogenous in cells; host or cells: Jurkat (ATCC TIB-152, clone E6-1) and Ramos (ATCC CRL-1596), 1:1 lysate mix
methodNotes: kinobeads assay, PI3Kγ
Format: binding
measurementContext: 1:1 mix of Jurkat and Ramos cell lysates, read-out: Inhibition values (IC50 in μM) as determined in the kinobeads assay, PI3Kγ

Take a look at these entries with their results.
>  <molecule>
CCNC(=O)Nc1ccc(-c2nc(N3CCOC[C@@H]3C)nc3c2CNC3)cc1 [Example 2]

>  <IC50>
10 to 100 µM

$$$$
>  <molecule>
CC(C)N1Cc2nc(N3CCOC[C@@H]3C)nc(-c3ccc(NC(=O)NC4CC4)cc3)c2C1 [Example 13]

>  <IC50>
> 100 µM

$$$$
>  <molecule>
C[C@H]1COCCN1c1nc2c(c(-c3ccc(NC(=O)NC4CC4)cc3)n1)CN(S(=O)(=O)C1CC1)C2 [Example 35]

>  <IC50>
> 100 µM

$$$$
>  <molecule>
O=C(Nc1ccc(-c2nc(N3CCOCC3)nc3c2CNC3)cc1)NC1CC1 [Example 5]

>  <IC50>
10 to 100 µM

$$$$
>  <molecule>
C[C@H]1COCCN1c1nc2c(c(-c3ccc(NC(=O)NC4CC4)cc3)n1)CN(C(=O)CCN)C2 [Example 29]

>  <IC50>
10 to 100 µM

$$$$
>  <molecule>
CCNC(=O)Nc1ccc(-c2nc(N3CCOC[C@@H]3C)nc3c2CN(C(=O)OCC)C3)cc1 [Example 8]

>  <IC50>
> 100 µM

$$$$
>  <molecule>
C[C@H]1COCCN1c1nc2c(c(-c3ccc(NC(=O)NC4CC4)cc3)n1)CN(C(=O)CN1CCOCC1)C2 [Example 47, 2,2,2-trifluoroacetate]

>  <IC50>
> 100 µM

$$$$
>  <molecule>
CCNC(=O)Nc1ccc(-c2nc(N3CC4CCC(C3)O4)nc3c2CN(C(C)C)C3)cc1 [Example 49, 2,2,2-trifluoroacetate]

>  <IC50>
> 100 µM

$$$$

In: Provide measured IC50 value, entry: C[C@H]1COCCN1c1nc2c(c(-c3ccc(NC(=O)NC4CC4)cc3)n1)CN(C(=O)CN(C)C)C2 [Example 20]
Out: > 100 µM

In: Provide measured IC50 value, entry: C[C@H]1COCCN1C(=O)Nc1ccc(-c2nc(N3CCOC[C@@H]3C)nc3c2CNC3)cc1 [Example 16]
Out: > 100 µM

In: Provide measured IC50 value, entry: CCNC(=O)Nc1ccc(-c2nc(N3CCOCC3)nc3c2CN(C(=O)OCC)C3)cc1 [Example 7]
Out: > 100 µM

* * *

assayedSystem: PI3Kγ (Homo sapiens, UniProt P48736)
Construct: endogenous in cells; host or cells: Jurkat (ATCC TIB-152, clone E6-1) and Ramos (ATCC CRL-1596), 1:1 lysate mix
Sequence (P48736 whole entry): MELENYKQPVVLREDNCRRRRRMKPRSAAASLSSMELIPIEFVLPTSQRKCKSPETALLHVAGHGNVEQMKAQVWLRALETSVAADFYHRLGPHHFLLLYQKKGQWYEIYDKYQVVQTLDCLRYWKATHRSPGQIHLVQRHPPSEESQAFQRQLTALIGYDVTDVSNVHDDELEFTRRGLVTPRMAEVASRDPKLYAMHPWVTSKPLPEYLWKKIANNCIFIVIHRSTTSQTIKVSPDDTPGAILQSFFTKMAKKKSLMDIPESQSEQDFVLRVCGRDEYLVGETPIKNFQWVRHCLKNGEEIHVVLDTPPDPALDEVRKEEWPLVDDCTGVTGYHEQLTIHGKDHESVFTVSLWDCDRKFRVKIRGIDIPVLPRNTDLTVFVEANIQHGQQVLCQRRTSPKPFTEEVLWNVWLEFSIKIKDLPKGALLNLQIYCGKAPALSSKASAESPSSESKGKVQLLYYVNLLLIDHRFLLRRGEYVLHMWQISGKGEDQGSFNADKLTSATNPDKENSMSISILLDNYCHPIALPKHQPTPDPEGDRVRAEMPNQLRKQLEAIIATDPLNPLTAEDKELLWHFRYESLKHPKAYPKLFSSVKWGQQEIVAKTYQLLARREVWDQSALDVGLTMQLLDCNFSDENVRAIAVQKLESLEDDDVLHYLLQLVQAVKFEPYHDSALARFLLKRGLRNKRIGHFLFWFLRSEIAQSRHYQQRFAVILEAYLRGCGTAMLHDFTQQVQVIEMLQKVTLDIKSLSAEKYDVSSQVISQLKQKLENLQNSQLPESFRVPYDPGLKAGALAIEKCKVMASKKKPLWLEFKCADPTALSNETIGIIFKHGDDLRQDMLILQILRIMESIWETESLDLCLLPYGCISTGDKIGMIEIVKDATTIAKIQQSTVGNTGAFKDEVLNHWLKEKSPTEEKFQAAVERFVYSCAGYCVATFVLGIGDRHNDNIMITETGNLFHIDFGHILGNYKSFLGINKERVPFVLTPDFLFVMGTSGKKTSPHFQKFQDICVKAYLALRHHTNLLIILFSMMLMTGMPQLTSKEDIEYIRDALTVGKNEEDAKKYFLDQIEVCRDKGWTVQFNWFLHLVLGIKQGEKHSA
methodNotes: kinobeads assay, PI3Kγ
Format: binding
measurementContext: 1:1 mix of Jurkat and Ramos cell lysates, read-out: Inhibition values (IC50 in μM) as determined in the kinobeads assay, PI3Kγ
recordedEndpoint: IC50

>  <compound>
NC(=O)Nc1ccc(-c2nc(N3CCOCC3)nc3c2CNC3)cc1

>  <recordedEndpoint>
IC50

>  <reportedResult>
1 to 10 µM

$$$$
>  <compound>
C[C@H]1COCCN1c1nc2c(c(-c3ccc(NC(=O)NC4CC4)cc3)n1)CN(C(=O)CC#N)C2

>  <recordedEndpoint>
IC50

>  <reportedResult>
> 100 µM

$$$$
>  <compound>
CCNC(=O)Nc1ccc(-c2nc(N3CCOC[C@@H]3C)nc3c2CN(C(C)C)C3)cc1 [Example 46, 2,2,2-trifluoroacetate]

>  <recordedEndpoint>
IC50

>  <reportedResult>
> 100 µM

$$$$
>  <compound>
C[C@H]1COCCN1c1nc2c(c(-c3ccc(NC(=O)NCCO)cc3)n1)CN(S(C)(=O)=O)C2

>  <recordedEndpoint>
IC50

>  <reportedResult>
1 to 10 µM

$$$$
>  <compound>
CCNC(=O)Nc1ccc(-c2nc(N3CCOC[C@@H]3C)nc3c2CN(C=O)C3)cc1

>  <recordedEndpoint>
IC50

>  <reportedResult>
10 to 100 µM

$$$$

Next item in the queue.
In: Provide measured IC50 value, entry: CCNC(=O)Nc1ccc(-c2nc(N3CCOCC3)nc3c2CNC3)cc1
Out: 10 to 100 µM

* * *

Reported IC50 values follow for various molecules
assayedSystem: PI3Kα (Homo sapiens)
Construct: endogenous in cells; host or cells: Jurkat (ATCC TIB-152, clone E6-1) and Ramos (ATCC CRL-1596), 1:1 lysate mix
Sequence (P42336 whole entry, one chain of several): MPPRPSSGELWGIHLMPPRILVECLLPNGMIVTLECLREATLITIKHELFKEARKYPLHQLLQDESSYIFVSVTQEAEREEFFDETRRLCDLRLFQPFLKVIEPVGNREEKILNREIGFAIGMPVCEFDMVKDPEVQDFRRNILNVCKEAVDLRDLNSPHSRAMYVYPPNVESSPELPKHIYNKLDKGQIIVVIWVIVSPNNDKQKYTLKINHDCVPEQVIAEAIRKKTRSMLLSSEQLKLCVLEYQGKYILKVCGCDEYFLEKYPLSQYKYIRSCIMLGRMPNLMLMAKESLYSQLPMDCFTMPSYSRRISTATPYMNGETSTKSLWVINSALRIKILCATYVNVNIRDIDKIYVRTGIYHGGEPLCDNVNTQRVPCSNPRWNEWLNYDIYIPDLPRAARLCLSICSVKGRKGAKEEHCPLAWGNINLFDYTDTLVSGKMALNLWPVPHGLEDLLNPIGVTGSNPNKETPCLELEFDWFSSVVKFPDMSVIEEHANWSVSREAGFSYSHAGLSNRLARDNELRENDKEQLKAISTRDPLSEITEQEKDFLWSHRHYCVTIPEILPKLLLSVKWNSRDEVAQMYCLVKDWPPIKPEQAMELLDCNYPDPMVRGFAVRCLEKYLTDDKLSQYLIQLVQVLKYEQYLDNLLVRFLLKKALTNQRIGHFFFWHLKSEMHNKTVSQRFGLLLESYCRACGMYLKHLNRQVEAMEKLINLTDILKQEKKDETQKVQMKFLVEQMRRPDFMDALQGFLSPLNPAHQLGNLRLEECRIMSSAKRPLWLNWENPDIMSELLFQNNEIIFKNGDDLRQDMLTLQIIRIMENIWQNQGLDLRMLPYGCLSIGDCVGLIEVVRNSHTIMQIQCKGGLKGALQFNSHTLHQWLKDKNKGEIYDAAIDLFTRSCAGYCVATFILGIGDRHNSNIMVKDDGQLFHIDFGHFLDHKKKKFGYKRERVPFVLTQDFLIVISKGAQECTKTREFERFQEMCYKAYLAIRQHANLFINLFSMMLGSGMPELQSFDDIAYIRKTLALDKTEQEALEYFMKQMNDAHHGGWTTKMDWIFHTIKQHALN
methodNotes: kinobeads assay, PI3Kα
Format: binding
measurementContext: 1:1 mix of Jurkat and Ramos cell lysates, read-out: Inhibition values (IC50 in μM) as determined in the kinobeads assay, PI3Kα

>  <molecule>
C[C@H]1COCCN1c1nc2c(c(-c3ccc(NC(=O)NC4CC4)cc3)n1)CN(C(=O)CO)C2 [Example 22]

>  <reportedResult>
10 to 100 µM

$$$$
>  <molecule>
COCC(=O)N1Cc2nc(N3CCOC[C@@H]3C)nc(-c3ccc(NC(=O)NC4CC4)cc3)c2C1 [Example 27]

>  <reportedResult>
10 to 100 µM

$$$$

Next item in the queue.
In: Provide measured IC50 value, entry: CC(C)N1Cc2nc(N3CCOC[C@@H]3C)nc(-c3ccc(NC(=O)NC4CC4)cc3)c2C1 [Example 13]
Out: > 100 µM

* * *

assayedSystem: mTOR (Homo sapiens, UniProt P42345)
Construct: endogenous in cells; host or cells: Jurkat (ATCC TIB-152, clone E6-1) and Ramos (ATCC CRL-1596), 1:1 lysate mix
methodNotes: mTOR kinobeads assay (competition binding in cell lysate, dot blot detection)
measurementContext: 1:1 mix of Jurkat and Ramos cell lysates, read-out: Inhibition values (IC50 in μM) as determined in the kinobeads assay, mTor
Structures can show the parent of a compound that is named as a salt.
Reported IC50 values follow for various molecules

Take a look at these entries with their results.
>  <molecule>
CC(C)N1Cc2nc(N3CCOC[C@@H]3C)nc(-c3ccc(NC(=O)NCCO)cc3)c2C1 [Example 34, 2,2,2-trifluoroacetate]

>  <assayedSystem>
mTOR (Homo sapiens, UniProt P42345)

>  <IC50>
0.1 to 1 µM

$$$$
>  <molecule>
CCOC(=O)Nc1ccc(-c2nc(N3CCOC[C@@H]3C)nc3c2CNC3)cc1

>  <assayedSystem>
mTOR (Homo sapiens, UniProt P42345)

>  <IC50>
10 to 100 µM

$$$$
>  <molecule>
C[C@H]1COCCN1c1nc2c(c(-c3ccc(NC(=O)NC4CC4)cc3)n1)CN(S(=O)(=O)C1CC1)C2

>  <assayedSystem>
mTOR (Homo sapiens, UniProt P42345)

>  <IC50>
1 to 10 µM

$$$$
>  <molecule>
C[C@H]1COCCN1c1nc2c(c(-c3ccc(NC(=O)NC4CC4)cc3)n1)CN(C(=O)CC#N)C2

>  <assayedSystem>
mTOR (Homo sapiens, UniProt P42345)

>  <IC50>
0.1 to 1 µM

$$$$
>  <molecule>
CCNC(=O)Nc1ccc(-c2nc(N3CCOC[C@@H]3C)nc3c2CNC3)cc1

>  <assayedSystem>
mTOR (Homo sapiens, UniProt P42345)

>  <IC50>
0.1 to 1 µM

$$$$

In: Provide measured IC50 value, entry: O=C(NCCO)Nc1ccc(-c2nc(N3CC4CCC(C3)O4)nc3c2CNC3)cc1 [Example 43, hydrochloride]
Out: ≤ 0.1 µM

In: Provide measured IC50 value, entry: CC(C)N1Cc2nc(N3CCOC[C@@H]3C)nc(-c3ccc(NC(=O)NCCC#N)cc3)c2C1 [Example 52, 2,2,2-trifluoroacetate]
Out: 1 to 10 µM

In: Provide measured IC50 value, entry: CCNC(=O)Nc1ccc(-c2nc(N3CC4CCC(C3)O4)nc3c2CNC3)cc1 [Example 44, hydrochloride]
Out: 0.1 to 1 µM

In: Provide measured IC50 value, entry: CC(=O)N1Cc2nc(N3CCOC[C@@H]3C)nc(-c3ccc(NC(=O)NCCO)cc3)c2C1
Out: 0.1 to 1 µM

In: Provide measured IC50 value, entry: C[C@H]1COCCN1C(=O)Nc1ccc(-c2nc(N3CCOC[C@@H]3C)nc3c2CNC3)cc1
Out: 1 to 10 µM

In: Provide measured IC50 value, entry: C[C@H]1COCCN1c1nc2c(c(-c3ccc(NC(=O)Nc4cccc(O)n4)cc3)n1)CNC2
Out: 0.1 to 1 µM

In: Provide measured IC50 value, entry: C[C@H]1COCCN1c1nc2c(c(-c3ccc(NC(=O)NC4CC4)cc3)n1)CN(C(N)=O)C2 [Example 42, 2,2,2-trifluoroacetate]
Out: 0.1 to 1 µM

In: Provide measured IC50 value, entry: O=C(Nc1ccc(-c2nc(N3CCOCC3)nc3c2CNC3)cc1)NC1CC1
Out: 0.1 to 1 µM

In: Provide measured IC50 value, entry: C[C@H]1COCCN1c1nc2c(c(-c3ccc(NC(=O)NCCO)cc3)n1)CNC2
Out: ≤ 0.1 µM

In: Provide measured IC50 value, entry: CC(C)N1Cc2nc(N3CCOC[C@@H]3C)nc(-c3ccc(NC(=O)NC4CC4)cc3)c2C1
Out: 0.1 to 1 µM

In: Provide measured IC50 value, entry: CCNC(=O)Nc1ccc(-c2nc(N3CCOC[C@@H]3C)nc3c2CN(C(C)C)C3)cc1 [Example 46, 2,2,2-trifluoroacetate]
Out: 1 to 10 µM

In: Provide measured IC50 value, entry: C[C@H]1COCCN1c1nc2c(c(-c3ccc(NC(=O)NC4CC4)cc3)n1)CN(C(=O)CN)C2
Out: 1 to 10 µM

In: Provide measured IC50 value, entry: CC(CO)NC(=O)Nc1ccc(-c2nc(N3CCOC[C@@H]3C)nc3c2CN(C(C)C)C3)cc1 (stereo partly shown) [Example 51, 2,2,2-trifluoroacetate]
Out: 1 to 10 µM

In: Provide measured IC50 value, entry: CCNC(=O)Nc1ccc(-c2nc(N3CCOCC3)nc3c2CN(C(=O)OCC)C3)cc1
Out: 1 to 10 µM
